- Test system: SK-MEL-28 melanoma
- runDescription: NCI-60 one-dose screen, 48 h
- condition: 10 µM unless noted
This is part of a sample that, as a whole, favours compounds with a hit. Of some 83,000 tested, about 20% had one in any assay. The source made the active and inactive calls. How the source made its calls: active means growth percent below 10; inactive means the rest.
Answer with one of the outcomes given here: True (active), False (inactive)

CC12CCC3C(=CCc4cc(O)ccc43)C1CCC2=O (configuration not stated): False
C1CCC(C(CC2CCCCN2)C2CCCCC2)CC1 (configuration not stated): True
COC(=O)[C@H](Cc1cnc[nH]1)NC(=O)[C@@H](NC(=O)Nc1cc(C(F)(F)F)cc(C(F)(F)F)c1)C(C)C: True

Now for another entry.
Challenge: State the result this test recorded for CSc1nc2nc3c(nc2c(=O)n1C)C(=O)c1ccccc1C3=O .
Response given: True
